- Assay notes: JC-1 mitochondrial signal, unstimulated adipocytes – cell-based, JC-1 fluorescence, 3T3-L1 adipocytes, 24 h, 100 nL compound, profiling panel (AID 1168); further: test concentration not given here
- Test context: JC-1 mitochondrial fluorescence, higher = more signal, called active from +8 up or from −8 down
Assign class by z-score: not lower than -0.06 means y; lower than -0.06 means n.

1. O=C1O[C@H](c2ccccc2)[C@H](c2ccccc2)N2[C@H]1[C@@H](C(=O)N1CCN(c3ncccn3)CC1)[C@]1(C(=O)Nc3ccc(C#CCCO)cc31)[C@H]2c1ccccc1OCCO = y
2. COCCOC(=O)N1C(=O)[C@@]2(c3cc(C#CCNC(N)=O)ccc31)[C@H](C(=O)N1CCCCCCC1)[C@H]1C(=O)O[C@H](c3ccccc3)[C@H](c3ccccc3)N1[C@@H]2c1ccc(OCCO)cc1 = n
3. C=C(C)[C@@H]1CC=C(C(O)C2C=CC3C(=O)N(C4CCCCC4)C(=O)C3N2Nc2ccc(OC)cc2)CC1 (some centres not stated) = n
4. O=C1NC(=O)C2C1C=CC(C(O)c1ccc3c(c1)OCO3)N2Nc1ccc(Cl)cc1Cl (configuration not stated) = n
5. O=C1C2C=CC(C(O)c3ccccn3)N(Nc3ccccc3)C2C(=O)N1c1ccccc1 (configuration not stated) = n
6. COCCOC(=O)N1C(=O)[C@@]2(c3cc(C#Cc4ccc(OC)cc4)ccc31)[C@H](c1ccc(OCCO)cc1)N1[C@H](c3ccccc3)[C@H](c3ccccc3)OC(=O)[C@H]1[C@@H]2C(N)=O = y
